- run_description: log P
- Format: physicochemical
Overview of reported log P across a group of molecules:
The answer should be a number; do not append a unit.

Known log P results, listed for orientation:
CC(C)(C)OC(=O)NCC(=O)NS(=O)(=O)c1nn2cc(-c3ccccc3)nc2s1 [Compound 18]: 3.32
CC(=O)NCC(=O)NS(=O)(=O)c1nn2cc(-c3ccccc3)nc2s1 [Compound 20]: 1.45
O=C(O)CCC(=O)NS(=O)(=O)c1nn2cc(-c3ccccc3)nc2s1 [Compound 22]: 2.26

Read the next record carefully.
Reported log P, molecule COCCOCCOCC(=O)NS(=O)(=O)c1nn2cc(-c3ccc(-c4cccc(C(F)(F)F)c4)cc3)nc2s1 [Compound 42] : ____ 4.35

Cited source for all entries: patent US20070112043A1
